Tested on: MALME-3M melanoma
Assay: NCI tumour cell line growth inhibition, 48 h
measure-name: TGI

Illustrative cases are given below, each with its answer.
compound: O=c1[nH]nc(-c2ccccc2)n1/N=C/c1ccco1
TGI: > 100 µM

compound: CSc1nc(Nc2ccccc2Cl)c2c(N)nn(C)c2n1
TGI: > 100 µM

compound: CCOC(=O)C(=O)Nc1cc(Cl)c(Cl)cc1Cl
TGI: > 100 µM

compound: CC1(C)CCCC2(C)C3C(O)CC2(C)C(O)C31 (configuration not stated)
TGI: > 100 µM

compound: Cc1ccc(S(=O)(=O)NC(=O)Nc2cccc(S(N)(=O)=O)c2)cc1
TGI: > 100 µM

Batch of 4 compounds: report TGI for each.
1. Cn1nc2ccc([N+](=O)[O-])cc2[n+]1[O-]
2. NC1C=NNC1=O (configuration not stated)
3. CCN(CC)Cc1ccccc1CC(=O)N1c2ccccc2C(=O)Nc2cccnc21
4. CCOC(=O)c1nc2ccccc2n(CC)c1=O

result:
1: > 100 µM; 2: > 100 µM; 3: > 100 µM; 4: > 100 µM

Batch of 4 compounds: report TGI for each.
1. O=C(O)Cc1ccc(Nc2nc3ccccc3nc2C(=O)O)cc1
2. O=C1CC(c2c(-c3ccccc3)[nH]c3ccccc23)C(=O)N1c1ccccc1 (configuration not stated)
3. COc1ccc(/C(C)=N/NC(=O)CSc2nc3ccccc3c(=O)n2CCc2ccc(S(N)(=O)=O)cc2)cc1
4. COC(=O)CCC(=O)N1C/C(=C\c2ccccc2)C(=O)/C(=C/c2ccccc2)C1

result:
1: > 100 µM; 2: > 100 µM; 3: 3.44 µM; 4: 4.62 µM

Batch of 2 compounds: report TGI for each.
1. O=C(O)c1cc2ccccc2c2c3c(ccc12)OCO3
2. COc1cccc2c1C1(O)C2CCCCCCCCCC12OCCCO2 (configuration not stated)

result:
361 µM
> 100 µM

Batch of 2 compounds: report TGI for each.
1. CC(C)(C)OP(=O)(OC(C)(C)C)C(O)c1ccc(/C=C(\C#N)C(N)=O)cc1 (configuration not stated)
2. CCCCCCCCOCC(O)CO (configuration not stated)

result:
> 100 µM
> 100 µM

Data provenance is PubChem BioAssay (NCI).
